Below, each entry is listed alongside its reported normalized growth.
# Assay Info: chemical genetic growth profiling, strain panel (AID 1159580);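 further: tested at 20 µM; growth read once vehicle control cultures reached saturation at 30 °C; 1 = growth at the plate median or of vehicle wells; lower values mean less growth of the strain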
# Measurement Setup: S. cerevisiae deletion strains, growth OD, locus YNL322C, strain KRE1, active compounds read low
About 2,000 (36%) of roughly 5,500 compounds were called active. Another 18% or so got no clear call; they are omitted. The list shows a part of the results.
Observable: normalized growth

>  <Molecule>
CCC(=O)c1c(O)cc(O)cc1O

>  <Observable>
normalized growth

>  <Data Value>
1.01

$$$$
>  <Molecule>
COc1cc(C(O)CO)ccc1OS(=O)(=O)O (configuration not stated)

>  <Observable>
normalized growth

>  <Data Value>
1.01

$$$$
>  <Molecule>
c1ccc(-c2ccccn2)nc1

>  <Observable>
normalized growth

>  <Data Value>
1.03

$$$$
>  <Molecule>
S=c1nccc(-c2ccc(Cl)cc2)[nH]1

>  <Observable>
normalized growth

>  <Data Value>
0.988

$$$$
>  <Molecule>
CCN(CC)C(=O)N[C@H]1C=C2c3cccc4[nH]cc(c34)C[C@H]2N(C)C1

>  <Observable>
normalized growth

>  <Data Value>
1.01

$$$$
>  <Molecule>
CSc1cccc(NC(=S)N=CN(C)C)c1

>  <Observable>
normalized growth

>  <Data Value>
1

$$$$
>  <Molecule>
O=C(O[C@@H]1Cc2c(O)cc(O)cc2O[C@@H]1c1cc(O)c(=O)c2c(O)c(O)cc([C@H]3Oc4cc(O)cc(O)c4C[C@H]3OC(=O)c3cc(O)c(O)c(O)c3)c2c1)c1cc(O)c(O)c(O)c1

>  <Observable>
normalized growth

>  <Data Value>
0.569

$$$$
>  <Molecule>
CCOC(=O)c1c(C)cc(OC)cc1O

>  <Observable>
normalized growth

>  <Data Value>
0.989

$$$$
>  <Molecule>
NC(=O)NCCCC(N)C(=O)O (configuration not stated)

>  <Observable>
normalized growth

>  <Data Value>
1.02

$$$$
>  <Molecule>
COC(=O)c1c(C)cc(OC)cc1O

>  <Observable>
normalized growth

>  <Data Value>
0.997

$$$$
>  <Molecule>
COC(=O)[C@@H]1[C@H]2C[C@H]3c4[nH]c5ccccc5c4CCN3C[C@@H]2CC[C@@H]1O

>  <Observable>
normalized growth

>  <Data Value>
0.952

$$$$
>  <Molecule>
Cc1onc(-c2ccc(Cl)cc2)c1-c1ccnn1C(=O)NC(C)C

>  <Observable>
normalized growth

>  <Data Value>
0.921

$$$$

###

# Assay Info: chemical genetic growth profiling, strain panel (AID 1159580);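 further: tested at 20 µM; growth read once vehicle control cultures reached saturation at 30 °C; 1 = growth at the plate median or of vehicle wells; lower values mean less growth of the strain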
# Measurement Setup: S. cerevisiae deletion strains, growth OD, locus YBR136W, strain MEC1, active compounds read low
Out of some 5,500 compounds screened, about 2,000 (36%) were called active. Roughly 18% stayed inconclusive and do not appear here. The list shows a part of the results.
Below, each entry is listed alongside its reported normalized growth.

>  <Compound>
Cc1cc(Cl)ccc1NNC(=O)c1sccc1Cl

>  <normalized growth>
0.9

$$$$
>  <Compound>
O=C(Nc1ccccc1)Nc1ccc(Cl)cc1[N+](=O)[O-]

>  <normalized growth>
0.977

$$$$
>  <Compound>
O=[N+]([O-])c1cc(Cl)cc([N+](=O)[O-])c1Nc1ccccc1

>  <normalized growth>
0.923

$$$$
>  <Compound>
COc1ccc(/C=C2/C(=O)Nc3ccccc32)cc1

>  <normalized growth>
0.894

$$$$
>  <Compound>
O=C(NNc1ccc(F)cc1F)c1sccc1Cl

>  <normalized growth>
0.971

$$$$
>  <Compound>
OC1(C(F)(F)F)CC(c2ccc3ccccc3c2)=NN1 (centres undefined)

>  <normalized growth>
0.339

$$$$
>  <Compound>
O=C1C(Cl)=C(Oc2cc(Cl)c(Cl)cc2Cl)C(=O)c2ccccc21

>  <normalized growth>
0.516

$$$$
>  <Compound>
O=C1/C(=C/c2ccccn2)CCc2ccccc21

>  <normalized growth>
0.929

$$$$
>  <Compound>
O=C1Nc2ccccc2/C1=C/c1ccc(Oc2ccccc2)nc1

>  <normalized growth>
0.975

$$$$
>  <Compound>
Oc1c(Cl)cc(Cl)cc1C=Nc1ccc(Sc2ccccc2)nc1Sc1ccccc1

>  <normalized growth>
0.954

$$$$
>  <Compound>
Oc1c(Br)cc(Br)cc1C=Nc1ccccn1

>  <normalized growth>
0.967

$$$$
>  <Compound>
O=C1Nc2ccccc2/C1=C\c1c(Cl)cccc1Cl

>  <normalized growth>
0.974

$$$$
>  <Compound>
Oc1c(Br)cc(Br)cc1C=Nc1ccc(Sc2ccccc2)nc1Sc1ccccc1

>  <normalized growth>
0.945

$$$$
>  <Compound>
CCNC(=S)N/N=C\c1cc(Cl)cc(Cl)c1O

>  <normalized growth>
0.931

$$$$

###

# Assay Info: chemical genetic growth profiling, strain panel (AID 1159580);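 further: tested at 20 µM; growth read once vehicle control cultures reached saturation at 30 °C; 1 = growth at the plate median or of vehicle wells; lower values mean less growth of the strain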
# Measurement Setup: S. cerevisiae deletion strains, growth OD, locus YPL055C, strain LGE1
Among all 5,500 compounds or so, about 2,000 (36%) were called active. About 18% were inconclusive and are not listed. Cut-off read from the data, not from the text of the source: active = normalized growth mostly below about 0.91 (no sharp cut-off); inconclusive = no clear call, values can overlap the other calls; inactive = mostly above about 0.92. This is one part of the list.
Classes used: active, inactive

>  <Compound>
CCC(c1ccc(O)cc1)C(CC)c1ccc(O)cc1 (stereo unspecified)

>  <Label Value>
inactive

$$$$
>  <Compound>
COc1ccc2c(c1)CCC1C2CC[C@@]2(C)C1CC[C@@H]2O (stereo partly specified)

>  <Label Value>
active

$$$$
>  <Compound>
CC(=O)OC(C)C[N+](C)(C)C (stereo unspecified)

>  <Label Value>
inactive

$$$$
>  <Compound>
NC(=S)NCCCC(N)C(=O)O (stereo unspecified)

>  <Label Value>
inactive

$$$$
>  <Compound>
CC(=O)OCC1=C(C(=O)O)N2C(=O)[C@@H](NC(=O)Cc3cccs3)[C@H]2SC1

>  <Label Value>
inactive

$$$$
>  <Compound>
C[N+](C)(C)CC(O)CC(=O)O (stereo unspecified)

>  <Label Value>
inactive

$$$$
>  <Compound>
NNC(=O)c1ccc(O)cc1

>  <Label Value>
inactive

$$$$
>  <Compound>
O=c1c(O)c(-c2cc(O)c(O)c(O)c2)oc2cc(O)cc(O)c12

>  <Label Value>
inactive

$$$$
>  <Compound>
NC(=NCc1ccccc1)NC(=O)c1nc(Cl)c(N)nc1N

>  <Label Value>
inactive

$$$$
>  <Compound>
COc1cccc2c(C)cc(=O)[nH]c12

>  <Label Value>
inactive

$$$$
>  <Compound>
CC12CCC3c4ccc(OCc5ccccc5)cc4CCC3C1C[C@@H](O)[C@@H]2O (stereo partly specified)

>  <Label Value>
active

$$$$
>  <Compound>
CCN(Cc1ccncc1)C(=O)C(CO)c1ccccc1 (stereo unspecified)

>  <Label Value>
inactive

$$$$
>  <Compound>
CC/C(=C(/CC)c1ccc(O)cc1)c1ccc(O)cc1

>  <Label Value>
inactive

$$$$
>  <Compound>
Brc1ccc(-c2ccn[nH]2)s1

>  <Label Value>
inactive

$$$$
>  <Compound>
O=C(O[C@@H]1Cc2c(O)cc(O)cc2O[C@@H]1c1cc(O)c(=O)c2c(O)c(O)cc([C@H]3Oc4cc(O)cc(O)c4C[C@H]3OC(=O)c3cc(O)c(O)c(O)c3)c2c1)c1cc(O)c(O)c(O)c1

>  <Label Value>
active

$$$$
>  <Compound>
CC1=NN=C(c2ccc(N)cc2)c2cc3c(cc2C1)OCO3

>  <Label Value>
inactive

$$$$
>  <Compound>
COc1cc(/C=C(\C#N)C(N)=S)cc(OC)c1OC

>  <Label Value>
inactive

$$$$
>  <Compound>
C[C@@H]1O[C@@H](OC[C@H]2OC(Oc3c(-c4ccc(OCCO)c(OCCO)c4)oc4cc(OCCO)cc(O)c4c3=O)[C@H](O)[C@@H](O)[C@@H]2O)[C@H](O)[C@H](O)[C@H]1O (stereo partly specified)

>  <Label Value>
inactive

$$$$
>  <Compound>
COc1cc2c(cc1OC)[C@@H](c1ccccc1)CN(C)CC2

>  <Label Value>
inactive

$$$$
>  <Compound>
OC1(C(F)(F)F)CC(c2ccccc2)=NN1 (stereo unspecified)

>  <Label Value>
inactive

$$$$
>  <Compound>
COc1ccc(-c2oc3c(CC=C(C)C)c(O[C@@H]4O[C@H](CO)[C@@H](O)[C@H](O)[C@H]4O)cc(O)c3c(=O)c2O[C@@H]2O[C@@H](C)[C@H](O)[C@@H](O)[C@H]2O)cc1

>  <Label Value>
inactive

$$$$
